Sourced from patent US12065426B2

# TEST_DETAILS: Saturation solubility studies in various mediums
# TEST_SETTINGS: ethanol, 25 °C, organic solvent or mixture, thermodynamic from solid
REPORTED_ENDPOINT: solubility (mg/mL)

| COMPOUND | UOM | MEASUREMENT |
| --- | --- | --- |
| Cc1cn(-c2cc(NC(=O)c3ccc(C)c(Nc4nccc(-c5cccnc5)n4)c3)cc(C(F)(F)F)c2)cn1.Cl [Form L] | mg/mL | 16.3 |

----------
# TEST_DETAILS: Saturation solubility studies in various mediums
# TEST_SETTINGS: isopropanol, 25 °C, organic solvent or mixture, thermodynamic from solid

| COMPOUND | solubility |
| --- | --- |
| Cc1cn(-c2cc(NC(=O)c3ccc(C)c(Nc4nccc(-c5cccnc5)n4)c3)cc(C(F)(F)F)c2)cn1.Cl [Form L] | 2.74 mg/mL |

----------
# TEST_DETAILS: Saturation solubility studies in various mediums
# TEST_SETTINGS: 0.01N HCl, 25 °C, simulated gastric fluid, thermodynamic from solid

| MOLECULE | solubility |
| --- | --- |
| Cc1cn(-c2cc(NC(=O)c3ccc(C)c(Nc4nccc(-c5cccnc5)n4)c3)cc(C(F)(F)F)c2)cn1.Cl [Form L] | 170 µg/mL |

----------
# TEST_DETAILS: Saturation solubility studies in various mediums
# TEST_SETTINGS: phosphate buffer, 25 °C, pH 6.8, aqueous buffer, thermodynamic from solid
REPORTED_ENDPOINT: solubility (µg/mL)

| COMPOUND | MEASUREMENT |
| --- | --- |
| Cc1cn(-c2cc(NC(=O)c3ccc(C)c(Nc4nccc(-c5cccnc5)n4)c3)cc(C(F)(F)F)c2)cn1.Cl [Form L] | 20 |
